Assay: qHTS assay for small molecule agonists of the antioxidant response element (ARE) signaling pathway (AID 743202); also: potency is read from the fitted curve at half-maximal effect
Settings: HepG2 ARE-bla reporter, beta-lactamase FRET, 16 h; series mostly up to 73.3 µM
Records with an inconclusive call do not appear. The source made the active and inactive calls. Calls follow the shape of the dose curve; as a rule, active = well fitted activation curve with a large enough effect in the signal ratio in the repeat runs (not every such curve was filed as active); inconclusive = weak or mixed curves, or effect the other way; inactive = no such curve, though single readings can be large or run the other way; the % refers to the signal ratio.
Measured attribute: Potency

Solved entries (count: 10):
{"Molecule": "Cc1cc(O)c(Cl)cc1C", "Potency": "inactive"}
{"Molecule": "Cc1ccc(Br)cc1", "Potency": "inactive"}
{"Molecule": "CNC(=O)c1c(I)c(NC(C)=O)c(I)c(C(=O)O)c1I", "Potency": "inactive"}
{"Molecule": "CC(=O)Oc1ccc(C(C)=O)cc1", "Potency": "inactive"}
{"Molecule": "CCOC(=O)[C@H](CCc1ccccc1)N[C@H]1CS[C@H](c2cccs2)CN(CC(=O)O)C1=O", "Potency": "inactive"}
{"Molecule": "CCN(CC)CC", "Potency": "inactive"}
{"Molecule": "NNC(=O)CCCCC(=O)NN", "Potency": "inactive"}
{"Molecule": "O=C(O)/C=C(\\CC(=O)O)C(=O)O", "Potency": "inactive"}
{"Molecule": "CN1CCN(C(=O)C2CCCCC2)CC1", "Potency": "inactive"}
{"Molecule": "CO/N=C(\\C(=O)O)c1csc(NC(=O)CCl)n1", "Potency": "13.3 µM (active)"}

Task item: Entry "CCCCCCC(=O)c1ccccc1" has what Potency?
Reply: inactive

Task item: Entry "Cc1ccc2ccccc2n1" has what Potency?
Reply: inactive

Task item: Entry "O=C(O)CCCCCCCCCC(=O)O" has what Potency?
Reply: inactive

Task item: Entry O=S(=O)(O)CC(O)CCl (stereo not given) has what Potency?
Reply: inactive

Task item: Entry COc1cc2nc(N3CCN(C(=O)C4CCCO4)CC3)nc(N)c2cc1OC (stereo not given) has what Potency?
Reply: inactive
